Source: PubChem BioAssay

- targetSystem: NADPH oxidase 4 (Homo sapiens)
- procedureSummary: compounds shifting NOX4 Amplex Red fluorescence – cell-based, HEK293-NOX4, tetracycline-induced, NOX inhibitor project, primary screen (AID 1160)
- assaySetup: HEK293-NOX4, Amplex Red H2O2 fluorescence, 45 min; higher = more signal, called active from +8 up or from −8 down
satisfied means recorded z-score is 0.5 or above; not satisfied means it is below 0.5.

# molecule, discreteLabel
measured = [
    ("CCCNC(=O)[C@@H]1c2ccccc2C(=O)N(Cc2ccccc2OC)[C@H]1c1ccc(CO)cc1", "satisfied"),
    ("CC(C)C(=C=CC[C@H](O)c1ccc(CO)o1)CCO", "not satisfied"),
    ("[N-]=[N+]=Nc1ccccc1[C@H]1OC(c2ccc(OCCCO)cc2)=N[C@@]1(CCS(=O)(=O)c1ccccc1)C(=O)NCc1ccccc1", "not satisfied"),
    ("CC[C@@H]1C=C(C(=O)O)[C@H](c2cccc3ccccc23)N1S(=O)(=O)c1ccc(C)cc1", "not satisfied"),
    ("COCCOC(=O)N1C(=O)[C@@]2(c3cc(C#CC4(O)CCCCCC4)ccc31)[C@H](c1ccccc1OCCO)N1[C@H](c3ccccc3)[C@H](c3ccccc3)OC(=O)[C@H]1[C@@H]2C(=O)N1CCc2cc(OC)c(OC)cc2C1", "satisfied"),
]

Challenge: Kindly determine if z-score recorded for COc1ccc([Si](C)(C)[C@@H]2[C@@H](CC(=O)N3CCC[C@H]3CO)O[C@]3(C(=O)N(Cc4cccc(I)c4)c4ccccc43)[C@H]2C)cc1 is above or exactly 0.5.
Response given: satisfied

Challenge: Kindly determine if z-score recorded for [N-]=[N+]=Nc1ccccc1C[C@@]1(C(=O)N2CCCCC2)N=C(c2ccc(OCCCO)cc2)O[C@@H]1c1ccccc1 is above or exactly 0.5.
Response given: satisfied

Challenge: Kindly determine if z-score recorded for N#Cc1ccc(C(O)C2C=CC3C(=O)N(c4ccccc4)C(=O)C3N2Nc2ccccc2F)cc1 (stereo not given) is above or exactly 0.5.
Response given: not satisfied

Challenge: Kindly determine if z-score recorded for CCCC[C@H]1C[C@@H]1[C@@H]1N(P(=O)(c2ccccc2)c2ccccc2)C[C@@](O)(c2ccccc2)CC12CC2 is above or exactly 0.5.
Response given: not satisfied

Challenge: Kindly determine if z-score recorded for COc1ccc(CCNC(=O)[C@@]2(C)c3ccccc3C(=O)N(c3ccc(C)cn3)[C@H]2c2ccc(CO)cc2)cc1 is above or exactly 0.5.
Response given: not satisfied

Challenge: Kindly determine if z-score recorded for CCOC(=O)[C@H]1C/C=C/C[C@H](C(=O)OCC)C(=O)O[C@H]2[C@@H](OC)O[C@H](CO)[C@@H](OC(=O)c3ccc(Br)cc3)[C@@H]2OC1=O is above or exactly 0.5.
Response given: not satisfied

Challenge: Kindly determine if z-score recorded for COC(=O)c1c(CC[C@@H](CO)NC(=O)N[C@@H](Cc2ccccc2)Cn2cc(-c3ccccn3)nn2)oc(C(=O)N2CCOCC2)c1C(=O)OC is above or exactly 0.5.
Response given: not satisfied

Challenge: Kindly determine if z-score recorded for C=C(CCCC)C(=O)CC[C@@H](OC(C)=O)c1ccc(CO)o1 is above or exactly 0.5.
Response given: not satisfied

---

- procedureSummary: compound effects on differentiated 3T3-L1 adipocyte viability – cell-based, 3T3-L1 adipocytes, calcein-AM fluorescence, 48 h, basal, profiling panel (AID 1163); note: test concentration not given here
- assaySetup: 3T3-L1 adipocytes viability, higher = more signal
Threshold-based label: z-score under 0.2 gives y, z-score not under 0.2 gives n.

# compound, discreteLabel
rows = [
    ("C=CCC(OC(C)=O)[C@@H]1[C@@H](N(Cc2cc3ccccc3o2)C(=O)Cc2ccc(OC)cc2)c2cc(OCCCO)ccc2N1C(=O)c1ccc2ccccc2c1 (stereo partly drawn)", "n"),
    ("CC1CC/C=C\\[C@H]2OC34C=CCN(c5ccc6ccccc6c5)C(=O)[C@H]3N(CCO)C(=O)[C@@H]4C2C(=O)O1 (stereo partly drawn)", "n"),
    ("CN(C)C(=O)[C@]1(Cc2ccccc2)N=C(c2ccc(OCCCO)cc2)O[C@@H]1c1ccccc1N=[N+]=[N-]", "y"),
    ("CCOC(=O)C1=CC[C@@H](c2ccc(C(F)(F)F)cc2)N(S(=O)(=O)c2ccc(C)cc2)[C@H]1c1ccccc1", "y"),
    ("COC(=O)c1c(CC[C@@H](CO)NC(=O)NCCc2c[nH]c3ccccc23)oc(C(=O)Cc2ccccc2)c1C(=O)OC", "n"),
    ("CCCCN1CC=CC23O[C@@H]4C=CCOC(=O)[C@@H]4[C@H]2C(=O)N(CCCCCCO)[C@@H]3C1=O (stereo partly drawn)", "y"),
    ("CC(=O)n1cc(C(O)C2C=CC3C(=O)NC(=O)C3N2Nc2ccccn2)c2ccccc21 (stereo not drawn)", "y"),
]

Challenge: Determine if COc1ccc([C@H]2OC[C@@H]3CCC(=O)N32)cc1 shows z-score strictly lower than 0.2.
Response given: y
